Reported peptide exchange yield is given for each of the following binders.
biological target: T1, HLA-A*03:01 (human); assay: UV-ligand exchange, anti-b2m ELISA; peptide exchange yield grade (>10% +, >20% ++, >50% +++, >75% ++++)
T1 construct: MHC class I monomer first loaded with a UV-sensitive peptide that is cleaved by UV irradiation and exchanged for the test peptide; captured on streptavidin plates; also called peptide-receptive MHC molecules

Look over these answered cases.
AVAFFVLPSK | > 75%
FSNNHPSTPK | 50 to 75%
RLFPGLYLGY | 50 to 75%
KVFEEPEDFLK | 20 to 50%
ALAAKLEVK | > 75%

In: Name the recorded peptide exchange yield of the binder listed here: `SLLTVSGAWAK`
Out: > 75%

In: Name the recorded peptide exchange yield of the binder listed here: `VAFFVLPSK`
Out: 20 to 50%
